Test: Stability in monkey plasma
Format: in vitro ADME
Conditions: 37° C., 120 minutes
Reported endpoint: Percentage of the compound remaining in plasma (%)
Answer format: numeric, % implied, no suffix.

Q: Find the recorded Percentage of the compound remaining in plasma belonging to CCC(CC)C(=O)OC(C)Oc1ccc([N+](=O)[O-])c2cccnc12 (stereo not drawn) [Compound 51] and report it.
Ans: 69.0

Q: Try this compound next: CC(C)(C)C(=O)OCOc1ccc([N+](=O)[O-])c2cccnc12 [Compound 4, (5-nitroquinolin-8-yloxy)methyl pivalate]
Ans: 0.0

Q: Try this compound next: O=[N+]([O-])c1ccc(O)c2ncccc12 [Nitroxoline]
Ans: 100.4

Q: Try this compound next: O=C(OCOc1ccc([N+](=O)[O-])c2cccnc12)N1CCOCC1 [Compound 7]
Ans: 98.7

Q: Try this compound next: CCC(CC)C(=O)OCOc1ccc([N+](=O)[O-])c2cccnc12 [Compound 5]
Ans: 0.0

Q: Try this compound next: CN1CCN(C(=O)OCOc2ccc([N+](=O)[O-])c3cccnc23)CC1 [Compound 6]
Ans: 98.9
